Cited source for all entries: PubChem BioAssay AID330

Tested on: P388 leukemia ip, CD2F1 mice, survival T/C
protocol.description: NCI In Vivo Anticancer Drug Screen. Data for tumor model P388 Leukemia (intraperitoneal) in CD2F1 (CDF1) mice
cond: endpoint: median survival time; dose: 100.0 mg/kg/injection; schedule: Q01DX005 (ip); vehicle: Klucel (hydroxypropylcellulose) (HPC); higher = longer survival
Toxic doses and inconclusive results are not listed. Bridge positions count the residues as written; N and C are the ends. Peptide text beside a SMILES is read from it. I, II: the chains in the order shown.
quantity.name: T/C

Example compounds with recorded T/C:
{"columns": ["compound", "target.under.test", "T/C"],
 "data": [
  ["Clc1ccc2c(NCC3CCCN4CCCCC34)ccnc2c1 (centres undefined)", "P388 leukemia ip, CD2F1 mice, survival T/C", "101 % of control"],
  ["CN(C)/[N+]([O-])=N/N1C(=O)c2ccccc2C1=O", "P388 leukemia ip, CD2F1 mice, survival T/C", "105 % of control"],
  ["CC1CCC2C(C)C3C(CC4C5CCC6CC(O)CCC6(C)C5CCC43CO)N2C1 (centres undefined)", "P388 leukemia ip, CD2F1 mice, survival T/C", "108 % of control"],
  ["Cc1ccc(S(=O)(=O)NCCSSCCNS(=O)(=O)c2ccc(C)cc2)cc1", "P388 leukemia ip, CD2F1 mice, survival T/C", "106 % of control"],
  ["NC(CSSCC(N)C(=O)NC(Cc1ccccc1)C(=O)O)C(=O)NC(Cc1ccccc1)C(=O)O (stereo not drawn) (I: H-Cys-Phe-OH / II: H-Cys-Phe-OH; disulfide I:1-II:1; configuration not given here)", "P388 leukemia ip, CD2F1 mice, survival T/C", "97 % of control"],
  ["CC1CCC(C(C)C)C(NC(=O)c2cc[n+](C)cc2)C1 (centres undefined)", "P388 leukemia ip, CD2F1 mice, survival T/C", "108 % of control"],
  ["CC1CCC2(C)C(CC(O)[C@H](O)C2(C)O)C1(C)CCc1ccoc1 (some centres undefined)", "P388 leukemia ip, CD2F1 mice, survival T/C", "97 % of control"],
  ["COC(=O)CCSC(=O)Nc1ccc(C)cc1", "P388 leukemia ip, CD2F1 mice, survival T/C", "100 % of control"],
  ["O=C(O)C[CH2][Sn](=[O])[CH2]CC(=O)O", "P388 leukemia ip, CD2F1 mice, survival T/C", "101 % of control"],
  ["Cc1nc2ccccc2c(=O)n1/N=C1\\C(=O)N(C)c2ccccc21", "P388 leukemia ip, CD2F1 mice, survival T/C", "105 % of control"]
]}

Input line: Need T/C, item CC1CCCC2=C1C(O)c1cccc(N)c1C2O (centres undefined)
Output line: 96 % of control

Input line: Find the recorded T/C belonging to `Clc1ccc2c(c1)nc(-c1ccccn1)n2CCc1ccccn1` and report it.
Output line: 101 % of control

Input line: Consider the compound shown here: CC(=O)OCC1OC(N(O)Cc2ccccc2)C(OC(C)=O)C(OC(C)=O)C1OC(C)=O (centres undefined) What is its recorded T/C?
Output line: 95 % of control
